# Tested on: M14
# PROCEDURE_SUMMARY: NCI tumour cell line growth inhibition, 48 h
Activity calls are given as the source filed them. Cut-off read from the data, not from the text of the source: active = GI50 up to about 1.1 µM and inactive = higher. Square brackets hold non-standard residues; d marks the D form. Peptide text beside a SMILES is read from it. Phe(4-Cl) = N[CH](Cc1ccc(Cl)cc1)C(=O)O; 2Nal = N[CH](Cc1ccc2ccccc2c1)C(=O)O; 3Pal = N[CH](Cc1cccnc1)C(=O)O
Recorded GI50, one value per entry.
REPORTED_ENDPOINT: GI50

[[record]]
compound = "S=P(N1CC1)(N1CC1)N1CC1"
reported_endpoint = "GI50"
measured_value = "72.1 µM (inactive)"

[[record]]
compound = "CC(=O)NC(Cc1ccc2ccccc2c1)C(=O)NC(Cc1ccc(Cl)cc1)C(=O)NC(Cc1cccnc1)C(=O)NC(CO)C(=O)NC(Cc1ccc(O)cc1)C(=O)NC(CCCN=C(N)N)C(=O)NC(CC(C)C)C(=O)NC(CCCN=C(N)N)C(=O)N1CCCC1C(=O)NC(C)C(N)=O (configuration not stated) (Ac-[2Nal][Phe(4-Cl)][3Pal]SYRLRPA-NH2; configuration not given here)"
reported_endpoint = "GI50"
measured_value = "> 100 µM (inactive)"

[[record]]
compound = "COc1cc2c3c(c1Oc1nnnn1-c1ccccc1)-c1c(ccc4c1OCO4)C[C@H]3N(C)CC2"
reported_endpoint = "GI50"
measured_value = "18.7 µM (inactive)"

[[record]]
compound = "COc1ccccc1N1C(=O)/C(=C\\c2cccc(Oc3ccccc3)c2)S(=O)(=O)C1c1ccccc1 (configuration not stated)"
reported_endpoint = "GI50"
measured_value = "50 µM (inactive)"

[[record]]
compound = "CCOC(=O)CCC(NC(=O)c1ccc(Nc2nc3cc(C(F)(F)F)ccc3nc2C(=O)OCC)cc1)C(=O)OCC (configuration not stated)"
reported_endpoint = "GI50"
measured_value = "4.51 µM (inactive)"

[[record]]
compound = "CCOC(=O)c1sc2c(c1OC(=O)c1ccco1)c(=O)n(-c1ccccc1)c(=S)n2-c1ccccc1"
reported_endpoint = "GI50"
measured_value = "28.2 µM (inactive)"

[[record]]
compound = "CC(C(=O)O)C1Nc2ccccc2NC1=O (configuration not stated)"
reported_endpoint = "GI50"
measured_value = "> 100 µM (inactive)"


---

Recorded GI50, one value per entry.
# System: MDA-MB-435
# PROCEDURE_SUMMARY: NCI tumour cell line growth inhibition, 48 h
Calls of active or inactive are those of the source. No stated cut-off is given here; in the data, active = GI50 up to about 1.1 µM and inactive = higher.
REPORTED_ENDPOINT: GI50

[[record]]
molecule = "Oc1cc(O)c2c(c1)O[C@H](c1cc(O)c(O)c(O)c1)[C@@H](O)C2 [GALLOCATECHIN]"
measured_value = "18.5 µM (inactive)"

[[record]]
molecule = "N#Cc1ccc(/C=C2\\Cc3ccccc3C2=O)cc1"
measured_value = "> 100 µM (inactive)"

[[record]]
molecule = "O=C(O)CS(=O)(=O)C(c1ccccc1)c1ccccc1"
measured_value = "> 100 µM (inactive)"

[[record]]
molecule = "CC(=O)CC1(C)OC(N)=C(C#N)C1(C#N)C#N (stereo unspecified)"
measured_value = "> 100 µM (inactive)"

[[record]]
molecule = "N[C@H](C(=O)O)[C@@H]1CC(Br)=NO1"
measured_value = "95.3 µM (inactive)"

[[record]]
molecule = "N#CCc1nc(C#N)c(N)o1"
measured_value = "> 100 µM (inactive)"


---

# Test system: MDA-MB-231
# PROCEDURE_SUMMARY: NCI tumour cell line growth inhibition, 48 h
Active and inactive are the calls of the source. No stated cut-off is given here; in the data, active = GI50 up to about 1.1 µM and inactive = higher.
Outcome codes: active, inactive

[[record]]
molecule = "CC[N+]1(C)CCC(O)(/C=C/c2ccccc2)C(C(=O)/C=C/c2ccccc2)C1 (configuration not stated)"
system_under_test = "MDA-MB-231"
class_label = "inactive"

[[record]]
molecule = "COc1ccccc1N1C(=O)/C(=C\\c2cccc(Oc3ccccc3)c2)S(=O)(=O)C1c1ccccc1 (configuration not stated)"
system_under_test = "MDA-MB-231"
class_label = "inactive"

[[record]]
molecule = "CC(C)CCC[C@@H](C)[C@H]1CC[C@H]2[C@@H]3CC[C@H]4C[C@H](N)CC[C@]4(C)[C@H]3CC[C@]12C"
system_under_test = "MDA-MB-231"
class_label = "inactive"

[[record]]
molecule = "Cc1ccc(S(=O)(=O)C2=Cc3ccc(C(F)(F)F)cc3C2(O)c2cccc(C(F)(F)F)c2)cc1 (configuration not stated)"
system_under_test = "MDA-MB-231"
class_label = "inactive"

[[record]]
molecule = "CC(C)CCC[C@@H](C)[C@H]1CC[C@H]2[C@@H]3CC[C@H]4C[C@@H](CCC=C(c5cc(Cl)c(O)c(C(=O)O)c5)c5cc(Cl)c(O)c(C(=O)O)c5)CC[C@]4(C)[C@H]3CC[C@]12C"
system_under_test = "MDA-MB-231"
class_label = "inactive"

[[record]]
molecule = "COc1cccc(-c2cc(O)c3cc(N4CCOCC4)ccc3n2)c1"
system_under_test = "MDA-MB-231"
class_label = "active"

[[record]]
molecule = "COc1cc2c3c(c4ccc(O)cc4c2cc1OC)[C@@H](O)[C@@H]1CCCN1C3"
system_under_test = "MDA-MB-231"
class_label = "active"


---

Recorded GI50, one value per entry.
# Tested on: OVCAR-4
# PROCEDURE_SUMMARY: NCI tumour cell line growth inhibition, 48 h
The source made the active and inactive calls. Rule as the data show it: active = GI50 up to about 1.1 µM and inactive = higher.
REPORTED_ENDPOINT: GI50

[[record]]
molecule = "COc1c2cc([N+](=O)[O-])cc1CNC(=O)CN1CCOCCOCCN(CCOCCOCC1)CC(=O)NC2"
measured_value = "> 100 µM (inactive)"

[[record]]
molecule = "Cc1c2ccncc2c(C)c2c1[nH]c1ccc(OC(C)C)cc12"
measured_value = "1.71 µM (inactive)"

[[record]]
molecule = "Cc1ccc2[nH]c3c(c2c1)C1CCC(C(C)(C)C)CC1C1C(=O)N(c2ccc4c(c2)OCO4)C(=O)C31 (stereo not drawn)"
measured_value = "1.85 µM (inactive)"

[[record]]
molecule = "COC(=O)[C@@H](NC1(c2ccccc2)c2ccccc2-c2ccccc21)[C@@H](C(=O)OC)N(NC(=O)OCc1ccccc1)C(=O)OCc1ccccc1.COC(=O)[C@@H](NC1(c2ccccc2)c2ccccc2-c2ccccc21)[C@H](C(=O)OC)N(NC(=O)OCc1ccccc1)C(=O)OCc1ccccc1"
measured_value = "> 100 µM (inactive)"

[[record]]
molecule = "Nc1nc(Cl)cc(NCC2(CO)CC(CCc3ccccc3)C2)n1 (stereo not drawn)"
measured_value = "> 29.3 µM (inactive)"

[[record]]
molecule = "S=P(N1CC1)(N1CC1)N1CC1"
measured_value = "188 µM (inactive)"

[[record]]
molecule = "COc1cc2ccc3c4cc(OC)c(OC(C)C)cc4c[n+](C)c3c2cc1OC"
measured_value = "64 µM (inactive)"

[[record]]
molecule = "COc1ccc(OC)c(CC2CCc3nc(N)nc(N)c3C2)c1 (stereo not drawn)"
measured_value = "28.8 µM (inactive)"

[[record]]
molecule = "CCN(CC)CCNc1ccc([N+](=O)[O-])c2nc3ccc(OC)cc3c(N)c12"
measured_value = "1.22 µM (inactive)"

[[record]]
molecule = "c1ccc(-c2nnc3nn4c(-c5ccccc5)cnnc4c3c2-c2ccccc2)cc1"
measured_value = "12.9 µM (inactive)"

[[record]]
molecule = "O=C1CC(=O)NC(NN2C(=O)CSC2c2ccc(Cl)c(Cl)c2)=N1 (stereo not drawn)"
measured_value = "> 100 µM (inactive)"

[[record]]
molecule = "Cc1cc(O)c(C(C)C)cc1CN1CCCCC1"
measured_value = "> 100 µM (inactive)"

[[record]]
molecule = "COc1ccc2nc3ccccc3c(NCCN(CCCl)CCCl)c2c1"
measured_value = "1.08 µM (active)"


---

# System: UO-31
# PROCEDURE_SUMMARY: NCI tumour cell line growth inhibition, 48 h
Where a name gives a salt, the structure may show the parent alone. Activity calls are given as the source filed them. Cut-off read from the data, not from the text of the source: active = GI50 up to about 1.1 µM and inactive = higher.
Outcome codes: active, inactive

[[record]]
compound = "O=C1c2cccnc2S(=O)(=O)N1c1ccc([N+](=O)[O-])cc1"
class_label = "inactive"

[[record]]
compound = "COc1ccc(/C=C\\c2cc(OC)c(OC)c(OC)c2)cc1OCC(=O)O"
class_label = "inactive"

[[record]]
compound = "COC(=O)C(=O)C(C(=O)C(=O)Nc1ccccc1C(N)=O)c1nc2ccc([N+](=O)[O-])cc2nc1O (stereo not given)"
class_label = "inactive"

[[record]]
compound = "Cc1cc(S(N)(=O)=O)c(S/C(=N\\Nc2ccc([N+](=O)[O-])cc2)c2ccc(Cl)cc2)cc1Cl"
class_label = "inactive"

[[record]]
compound = "O=c1nc(N2CCCC2)nc(N2CCCC2)s1"
class_label = "inactive"

[[record]]
compound = "C#Cc1cccc(Nc2ncnc3cc(OCCOC)c(OCCOC)cc23)c1 [ERLOTINIB HYDROCHLORIDE]"
class_label = "inactive"

[[record]]
compound = "O=C(O)CS(=O)(=O)C(c1ccccc1)c1ccccc1"
class_label = "inactive"

[[record]]
compound = "CC(=O)OCC12C(OC(C)=O)C[C@@H](C)C3(CC(c4ccoc4)OC3=O)C1CCC(O)C21CO1 (stereo not given in full)"
class_label = "inactive"

[[record]]
compound = "Cn1c2ncccc2n2c(=O)cc(O)cc12"
class_label = "inactive"

[[record]]
compound = "COc1cc2c3c(c4ccc(O)cc4c2cc1OC)[C@@H](O)[C@@H]1CCCN1C3"
class_label = "active"


These measurements were taken from ChEMBL document CHEMBL1201862.
